biological target: T1, huCD3e-mFc (human, UniProt P07766 23-126); assay: Pool 3 screen, R2
T1 construct: not shown: mFc, not described
T1 sequence (P07766 23-126): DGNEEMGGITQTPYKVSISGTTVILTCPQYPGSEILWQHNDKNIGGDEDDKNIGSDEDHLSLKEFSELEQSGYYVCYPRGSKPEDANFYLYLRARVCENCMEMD
pKd: −log10 of the molar value.
Each entry below carries its recorded pKd.
Assay Endpoint: pKd

[
  {
    "Binder": "AC3768 (CD3.23 control) (scFv, V domains shown, Pool 3 format (remarks)) VH: EVQLLESGGGIVQPGGSLKLSCAASGFTFNTYAMNWVRQAPGKGLEWVARIRSKYNNYATYYADSVKDRFTISRDDSKNTVYLQMNNLKTEDTAVYYCVRHENFGNSYVSWFAHWGQGTLVTVSS VL: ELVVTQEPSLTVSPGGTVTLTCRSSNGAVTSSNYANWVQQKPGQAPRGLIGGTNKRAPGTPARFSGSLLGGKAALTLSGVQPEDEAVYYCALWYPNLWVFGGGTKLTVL",
    "Assay Endpoint": "pKd",
    "Reported Result": 8.10
  },
  {
    "Binder": "AC3878 (CD3.374) (scFv, V domains shown, Pool 3 format (remarks)) VH: EVQLVESGGGIVQPGGSLRLSCAASGFTFSTYAMNWVRQAPGKGLEWGGRIRTKRNNYATYYADSVKGRFTISRDDSKNTVYLQMNSLKTEDTAVYYCVRHENFGNSYVSWFAHWGQGTLVTVSS VL: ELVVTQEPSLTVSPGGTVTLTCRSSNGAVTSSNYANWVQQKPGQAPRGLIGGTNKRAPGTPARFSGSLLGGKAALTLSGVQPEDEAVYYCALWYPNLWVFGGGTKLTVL",
    "Assay Endpoint": "pKd",
    "Reported Result": 7.77
  },
  {
    "Binder": "AC3802 (CD3.298) (scFv, V domains shown, Pool 3 format (remarks)) VH: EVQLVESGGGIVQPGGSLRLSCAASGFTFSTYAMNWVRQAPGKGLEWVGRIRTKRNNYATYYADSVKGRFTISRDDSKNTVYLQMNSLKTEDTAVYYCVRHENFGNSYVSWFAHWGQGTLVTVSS VL: ELVVTQEPSLTVSPGGTVTLTCRSSNGAVTSSNYANWVQQKPGQAPRGLIGGTNKRAPGTPARFSGSLDGGKAALTLSGVQPEDEAVYYCALWYPNLWVFGGGTKLTVL",
    "Assay Endpoint": "pKd",
    "Reported Result": 8.10
  }
]
